Source of measurements: ChEMBL document CHEMBL5058577

System: Fibroblast
Assay: Multiplex assay against human fibroblast
Assay type: toxicity, cell-based
Details: 24 h, 1 µM, compound concentration 1 uM, replicate 2
property_label: Population Pyknosed Nuclei (%)
// return numeric value only (unit: %, not printed)

{"compound": "N#Cc1c(N)nc(SCc2csc(-c3ccc(Cl)cc3)n2)c(C#N)c1-c1ccc(OCCO)cc1", "target_desc": "Fibroblast", "Population Pyknosed Nuclei (%)": 20}

Query: Bench note: what Population Pyknosed Nuclei (%) did C[C@H](NC(=O)c1c(C(F)F)nn(C)c1Oc1cccc(C(F)(F)F)c1)c1ccc(C(=O)O)cc1 show?
Reply: 20

Query: Now consider O=C1COc2nccc(-c3ccccc3F)c2CN1Cc1cc(C(F)(F)F)cc(C(F)(F)F)c1 .
Reply: 20

Query: Now consider Cc1nc2ccc(Oc3ccc(F)cc3)cc2c(=O)n1C[C@H]1CCCN(C(C)C)C1.Cl .
Reply: 20

Query: Now consider CCCn1c(=O)c2[nH]c(C3CCCC3)nc2n(CCC)c1=O .
Reply: 21

Query: Now consider CN(C)c1ccnc2sc3c(=O)n(N4CCCCCC4)cnc3c12 .
Reply: 19

Query: Now consider Cc1ccc(C(C)(O)c2nc3ccccc3s2)c(C)c1 (stereo not given) .
Reply: 20

Query: Now consider c1cc(OCCCN2CCCCC2)ccc1CN1CCCCC1 .
Reply: 19

Query: Now consider C[C@H]1[C@H]2CC[C@H]3[C@@H]4CC=C5C[C@@H](N(C)C)CC[C@]5(C)[C@H]4CC[C@]23CN1C .
Reply: 24

Query: Now consider O=C(O)Cc1ccccc1Nc1c(Cl)cccc1Cl .
Reply: 21
